test system: Staphylococcus aureus; experiment: Antimicrobial activity against Staphylococcus aureus assessed as inhibition of visible growth after 24 hrs by disc-diffusion method; type: functional, organism-based
Calls of active or inactive are those of the source. No cut-off for these calls is given here.
metric-name: Activity

Please review the following examples before continuing.
{"compound": "CC(=O)NS(=O)(=O)c1ccc(N)cc1 [SULFACETAMIDE]", "test-system": "Staphylococcus aureus", "Activity": "Active"}
{"compound": "Cc1ccc2nc(Sc3nnc(N)s3)n(-c3ccc(Cl)cc3)c(=O)c2c1", "test-system": "Staphylococcus aureus", "Activity": "Active"}
{"compound": "Cc1nc(N)sc1Sc1nc2ccc(Cl)cc2c(=O)n1Cc1ccccc1", "test-system": "Staphylococcus aureus", "Activity": "Active"}
{"compound": "Cc1ccc2nc(Sc3sc(N)nc3C)n(-c3ccc(Oc4ccccc4)cc3)c(=O)c2c1", "test-system": "Staphylococcus aureus", "Activity": "Active"}

Let us move to another entry and its Activity.
Please look up its Activity: Cc1ccc(-n2c(Sc3nnc(N)s3)nc3ccc(Cl)cc3c2=O)cc1
Active

----------
test system: NCI-H226; experiment: Growth inhibition of human NCI-H226 cells at 10 uM after 48 hrs; assay type: functional; conditions: NCI-H226, 48 h, read-out: GI
metric-name: inhibition of growth at 10 µM (%)
Answers are plain numbers, in %.

Please review the following examples before continuing.
{"item-smiles": "COc1cc2nc(Sc3nnc(N)s3)n(-c3ccc(Oc4ccccc4)cc3)c(=O)c2cc1OC", "test-system": "NCI-H226", "unit-annotation": "%", "experimental-result": 13.4}
{"item-smiles": "COc1cc2nc(Sc3sc(N)nc3C)n(-c3ccc(Oc4ccccc4)cc3)c(=O)c2cc1OC", "test-system": "NCI-H226", "unit-annotation": "%", "experimental-result": 10.3}
{"item-smiles": "COc1ccc(-n2c(Sc3sc(N)nc3C)nc3ccc(Cl)cc3c2=O)cc1", "test-system": "NCI-H226", "unit-annotation": "%", "experimental-result": 11.8}
{"item-smiles": "Cc1nc(N)sc1Sc1nc2ccc(Cl)cc2c(=O)n1-c1ccc(Oc2ccccc2)cc1", "test-system": "NCI-H226", "unit-annotation": "%", "experimental-result": 13.6}
{"item-smiles": "Cc1ccc2nc(Sc3sc(N)nc3C)n(Cc3ccccc3)c(=O)c2c1", "test-system": "NCI-H226", "unit-annotation": "%", "experimental-result": 22.7}
{"item-smiles": "COc1ccc(-n2c(Sc3nnc(N)s3)nc3ccc(Cl)cc3c2=O)cc1", "test-system": "NCI-H226", "unit-annotation": "%", "experimental-result": 13.4}

Please look up its inhibition of growth at 10 µM: Cc1nc(N)sc1Sc1nc2ccc(Cl)cc2c(=O)n1Cc1ccccc1
10.4

----------
For each of the molecules below, state its inhibition of growth at 10 µM.
test: Growth inhibition of human OVCAR4 cells at 10 uM after 48 hrs; assay type: functional; conditions: OVCAR-4, 48 h, read-out: GI
Answers are plain numbers, in %.

Please look at the items below and tell me inhibition of growth at 10 µM for each one, in order.
1. Cc1nc(N)sc1Sc1nc2ccc(Cl)cc2c(=O)n1-c1ccc(Oc2ccccc2)cc1
2. COc1cc2nc(Sc3nnc(N)s3)n(-c3ccc(Oc4ccccc4)cc3)c(=O)c2cc1OC
3. COc1ccc(-n2c(Sc3sc(N)nc3C)nc3ccc(Cl)cc3c2=O)cc1
4. Cc1ccc2nc(Sc3sc(N)nc3C)n(Cc3ccccc3)c(=O)c2c1
5. COc1ccc(-n2c(Sc3sc(N)nc3C)nc3ccc(C)cc3c2=O)cc1
6. Cc1nc(N)sc1Sc1nc2ccc(Cl)cc2c(=O)n1Cc1ccccc1

1: 59.1; 2: 34.6; 3: 13.8; 4: 18.7; 5: 12.9; 6: 20.9

Please look up its inhibition of growth at 10 µM: COc1cc2nc(Sc3sc(N)nc3C)n(-c3ccc(Oc4ccccc4)cc3)c(=O)c2cc1OC
49.3

----------
tested on: Staphylococcus aureus; assay: Antimicrobial activity against Staphylococcus aureus assessed as inhibition zone at 200 ug/disk after 24 hrs by disc-diffusion method; assay type: functional; settings: read-out: IZ
metric-name: zone of inhibition at 200 µg/disc

Please review the following examples before continuing.
{"item-smiles": "Cc1nc(N)sc1Sc1nc2ccc(Cl)cc2c(=O)n1-c1ccccc1", "experimental-result": "8 mm"}
{"item-smiles": "Nc1nnc(Sc2nc3ccc(Cl)cc3c(=O)n2-c2ccccc2)s1", "experimental-result": "8 mm"}
{"item-smiles": "COc1cc2nc(Sc3nnc(N)s3)n(Cc3ccccc3)c(=O)c2cc1OC", "experimental-result": "8 mm"}
{"item-smiles": "Cc1ccc2nc(Sc3sc(N)nc3C)n(Cc3ccccc3)c(=O)c2c1", "experimental-result": "18 mm"}

Please look at the items below and tell me zone of inhibition at 200 µg/disc for each one, in order.
1. COc1ccc(-n2c(Sc3nnc(N)s3)nc3ccc(Cl)cc3c2=O)cc1
2. Cc1ccc2nc(Sc3nnc(N)s3)n(-c3ccc(Cl)cc3)c(=O)c2c1

1. 8 mm
2. 24 mm

----------
experiment: Growth inhibition of human HCT15 cells at 10 uM after 48 hrs; format: functional; conditions: HCT-15, 48 h, read-out: GI
For each of the compounds below, state its inhibition of growth at 10 µM.
Could you write the number and then its unit?

Please look at the items below and tell me inhibition of growth at 10 µM for each one, in order.
1. Cc1ccc2nc(Sc3sc(N)nc3C)n(-c3ccc(Cl)cc3)c(=O)c2c1
2. Cc1ccc2nc(Sc3sc(N)nc3C)n(Cc3ccccc3)c(=O)c2c1
3. Nc1nnc(Sc2nc3ccc(Cl)cc3c(=O)n2-c2ccc(Cl)cc2)s1
4. COc1cc2nc(Sc3nnc(N)s3)n(-c3ccc(Oc4ccccc4)cc3)c(=O)c2cc1OC
5. COc1cc2nc(Sc3sc(N)nc3C)n(-c3ccc(Oc4ccccc4)cc3)c(=O)c2cc1OC

27.7%
13.5%
12.7%
21.4%
20.1%

Please look at the items below and tell me inhibition of growth at 10 µM for each one, in order.
1. Cc1nc(N)sc1Sc1nc2ccc(Cl)cc2c(=O)n1-c1ccc(Oc2ccccc2)cc1
2. COc1ccc(-n2c(Sc3sc(N)nc3C)nc3ccc(C)cc3c2=O)cc1

1. 44.6%
2. 25.3%

----------
test: Growth inhibition of human BT549 cells at 10 uM after 48 hrs; assay type: functional; conditions: BT-549, 48 h, read-out: GI
metric-name: inhibition of growth at 10 µM (%)
Numbers only, in %.

{"item-smiles": "Cc1nc(N)sc1Sc1nc2ccc(Cl)cc2c(=O)n1-c1ccc(Oc2ccccc2)cc1", "unit-annotation": "%", "inhibition of growth at 10 µM": 36.8}
{"item-smiles": "Cc1ccc2nc(Sc3sc(N)nc3C)n(-c3ccc(Cl)cc3)c(=O)c2c1", "unit-annotation": "%", "inhibition of growth at 10 µM": 33.1}
{"item-smiles": "COc1cc2nc(Sc3sc(N)nc3C)n(-c3ccc(Oc4ccccc4)cc3)c(=O)c2cc1OC", "unit-annotation": "%", "inhibition of growth at 10 µM": 28.7}

Let us move to another entry and its inhibition of growth at 10 µM.
Please look up its inhibition of growth at 10 µM: COc1ccc(-n2c(Sc3sc(N)nc3C)nc3ccc(C)cc3c2=O)cc1
20.6

----------
system: KM12; test: Growth inhibition of human KM12 cells at 10 uM after 48 hrs; type: functional
Calls of active or inactive are those of the source. No cut-off for these calls is given here.
metric-name: growth inhibition (GI)

Please review the following examples before continuing.
{"item-smiles": "Cc1ccc(-n2c(Sc3sc(N)nc3C)nc3ccc(C)cc3c2=O)cc1", "growth inhibition (GI)": "inactive"}
{"item-smiles": "COc1ccc(-n2c(Sc3nnc(N)s3)nc3ccc(C)cc3c2=O)cc1", "growth inhibition (GI)": "inactive"}
{"item-smiles": "COc1cc2nc(Sc3sc(N)nc3C)n(Cc3ccccc3)c(=O)c2cc1OC", "growth inhibition (GI)": "inactive"}
{"item-smiles": "COc1ccc(-n2c(Sc3sc(N)nc3C)nc3cc(OC)c(OC)cc3c2=O)cc1", "growth inhibition (GI)": "inactive"}
{"item-smiles": "COc1cc2nc(Sc3nnc(N)s3)n(-c3ccc(C)cc3)c(=O)c2cc1OC", "growth inhibition (GI)": "inactive"}

Please look at the items below and tell me growth inhibition (GI) for each one, in order.
1. Cc1ccc(-n2c(Sc3nnc(N)s3)nc3ccc(Cl)cc3c2=O)cc1
2. Cc1ccc2nc(Sc3nnc(N)s3)n(-c3ccc(Oc4ccccc4)cc3)c(=O)c2c1
3. COc1cc2nc(Sc3sc(N)nc3C)n(-c3ccc(Cl)cc3)c(=O)c2cc1OC

["inactive", "inactive", "inactive"]

Please look at the items below and tell me growth inhibition (GI) for each one, in order.
1. Cc1nc(N)sc1Sc1nc2ccc(Cl)cc2c(=O)n1-c1ccc(Cl)cc1
2. Cc1ccc2nc(Sc3nnc(N)s3)n(Cc3ccccc3)c(=O)c2c1

1: inactive; 2: inactive
